This section presents IC50 values reported for Protein mono-ADP-ribosyltransferase PARP14 (Homo sapiens, UniProt Q460N5) in the literature.

>  <Structure String>
COc1cc(OCC2CCCCC2)ccc1C(N)=O

>  <Metric>
IC50

>  <Endpoint Value>
> 100 µM

$$$$
>  <Structure String>
O=C(c1cc(Cc2n[nH]c(=O)c3ccccc23)ccc1F)N1CCn2c(nnc2-c2ccc(Br)o2)C1

>  <Metric>
IC50

>  <Endpoint Value>
35.9 µM

$$$$
>  <Structure String>
N#Cc1ccc2c(c1)[nH]c(=O)n2[C@H]1C[C@H](c2nnc(-c3ccncn3)n2-c2ccccc2Cl)C1

>  <Metric>
IC50

>  <Endpoint Value>
> 10 µM

$$$$
>  <Structure String>
NC(=O)c1ccc(OCC2CCCCC2)cc1F

>  <Metric>
IC50

>  <Endpoint Value>
> 10 µM

$$$$
>  <Structure String>
NC(=O)c1ccc(OCc2cncs2)cc1

>  <Metric>
IC50

>  <Endpoint Value>
> 10 µM

$$$$

Item: COc1cc(OCc2cccc(Br)c2)ccc1C(N)=O | IC50: > 100 µM

Record O=c1[nH][nH]c(=O)c2cc(OCC3CCCC3)ccc12 . Reported IC50: > 10 µM

Value of IC50 reported for the compound O=c1[nH][nH]c(=O)c2cc(OCC3CCC3)ccc12 is > 10 µM

Quick note, IC50 for COc1ccc(C2(CNC(=O)c3ccc(NC(=O)c4ccco4)cc3Cl)CCOCC2)cc1 landed at > 10 µM

So for NC(=O)c1ccc(OCC2CCC2)cc1F , the logged IC50 turned out to be > 10 µM

The recorded IC50 for entry NC(=O)c1ccc(OCC2CCC2)cc1OCCN1CCNCC1 equals > 10 µM

// IC50 lookup, compound = NC(=O)c1ccc(OCC2CCC2)cc1 , result: > 10 µM
